Values were extracted from patent US9447093B2.

Kindly supply the reported IC50 values for the records listed here.
- Target System: DYRK1A protein (Homo sapiens)
- Construct: the peptide phosphorylated by His-DYRK1A-ΔC is separated from the unphosphorylated peptide; His (N)
- Experiment Description: DYRK1A activity assay (fluorescein peptide substrate, UFLC with fluorescence detection)
- Experimental Parameters: DYRK1A protein, ΔDYRK1A enzyme, 37° C.
The reply should read as a number followed by its unit.

compound="Oc1ccc(-c2cnc3[nH]cc(-c4ccc(O)cc4)c3c2)cc1 [Ib]" measured_result="23.1 nM"
compound="Oc1ccc(-c2cnc3[nH]cc(-c4ccccc4)c3c2)cc1 [C]" measured_result="326 nM"
compound="Oc1ccc(-c2cnc3[nH]cc(-c4ccccc4)c3c2)cc1O [E]" measured_result="160 nM"

Task item: Notebook entry, DYRK1A protein (Homo sapiens) assay: IC50 of Oc1ccccc1-c1cnc2[nH]cc(-c3ccccc3)c2c1 [Compound A] = ?
Reply: 3590 nM
